Where these numbers come from: patent US20190134153A1

Entries and their measured % activity follow.
target: SAPK2a(T106M)(h) (Homo sapiens, UniProt Q16539, T106M); experiment: Kinase Profiling Assay; assay type: biochemical; conditions: 100 μM
Sequence (Q16539 whole entry T106M): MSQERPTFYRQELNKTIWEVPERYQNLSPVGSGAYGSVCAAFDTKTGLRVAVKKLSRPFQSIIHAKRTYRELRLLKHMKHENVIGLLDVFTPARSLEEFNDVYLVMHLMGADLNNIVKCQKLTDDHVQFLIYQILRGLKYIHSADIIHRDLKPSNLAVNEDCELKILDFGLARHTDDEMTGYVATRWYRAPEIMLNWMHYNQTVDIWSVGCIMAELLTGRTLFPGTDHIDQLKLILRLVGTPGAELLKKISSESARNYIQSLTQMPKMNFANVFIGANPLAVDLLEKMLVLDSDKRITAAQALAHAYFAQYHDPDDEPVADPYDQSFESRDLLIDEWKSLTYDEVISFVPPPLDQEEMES
readout kind: % activity (%)

* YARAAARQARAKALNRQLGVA [MMI-0200] | 100
* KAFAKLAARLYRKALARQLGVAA [MMI-0400] | 99
* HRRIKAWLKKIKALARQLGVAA [MMI-0500] | 32
* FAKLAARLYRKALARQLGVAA [MMI-0300] | 97

* * *

target: CHK2(R145W)(h) (Homo sapiens, UniProt O96017, R145W); test: Kinase Profiling Assay; type: biochemical; settings: 100 μM
Sequence (O96017 whole entry R145W): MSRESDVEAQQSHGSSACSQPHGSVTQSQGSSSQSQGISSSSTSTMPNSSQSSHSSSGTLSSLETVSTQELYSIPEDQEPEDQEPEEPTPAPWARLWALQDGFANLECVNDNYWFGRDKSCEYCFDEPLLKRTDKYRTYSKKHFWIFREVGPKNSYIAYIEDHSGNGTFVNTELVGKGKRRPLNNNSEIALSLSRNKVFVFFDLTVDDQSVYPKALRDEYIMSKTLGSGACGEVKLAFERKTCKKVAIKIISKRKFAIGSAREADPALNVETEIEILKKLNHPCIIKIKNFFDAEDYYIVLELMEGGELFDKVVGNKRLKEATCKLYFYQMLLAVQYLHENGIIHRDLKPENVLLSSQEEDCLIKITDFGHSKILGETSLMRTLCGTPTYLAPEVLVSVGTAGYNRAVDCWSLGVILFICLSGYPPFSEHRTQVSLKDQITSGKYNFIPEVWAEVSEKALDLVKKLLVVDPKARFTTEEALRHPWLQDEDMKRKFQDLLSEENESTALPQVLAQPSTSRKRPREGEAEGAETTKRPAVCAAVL
In this section, each of the sequences is paired with its reported % activity.
readout kind: % activity (%)

* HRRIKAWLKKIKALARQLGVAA [MMI-0500] | 3
* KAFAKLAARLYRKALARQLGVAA [MMI-0400] | 31
* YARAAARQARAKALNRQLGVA [MMI-0200] | 81
* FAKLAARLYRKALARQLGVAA [MMI-0300] | 33

* * *

target: cKit(h) (Homo sapiens, UniProt P10721); assay: Kinase Profiling Assay; type: biochemical; conditions: 100 μM
readout kind: % activity (%)

- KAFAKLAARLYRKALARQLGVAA [MMI-0400]: 43
- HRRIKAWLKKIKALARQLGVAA [MMI-0500]: 45
- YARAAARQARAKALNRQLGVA [MMI-0200]: 110
- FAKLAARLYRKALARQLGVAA [MMI-0300]: 53

* * *

Below is a list of entries, each paired with its recorded % activity value.
molecular target: Arg(h) (Homo sapiens, UniProt P42684); experiment: Kinase Profiling Assay; assay type: biochemical; conditions: 100 μM
Sequence (P42684 whole entry): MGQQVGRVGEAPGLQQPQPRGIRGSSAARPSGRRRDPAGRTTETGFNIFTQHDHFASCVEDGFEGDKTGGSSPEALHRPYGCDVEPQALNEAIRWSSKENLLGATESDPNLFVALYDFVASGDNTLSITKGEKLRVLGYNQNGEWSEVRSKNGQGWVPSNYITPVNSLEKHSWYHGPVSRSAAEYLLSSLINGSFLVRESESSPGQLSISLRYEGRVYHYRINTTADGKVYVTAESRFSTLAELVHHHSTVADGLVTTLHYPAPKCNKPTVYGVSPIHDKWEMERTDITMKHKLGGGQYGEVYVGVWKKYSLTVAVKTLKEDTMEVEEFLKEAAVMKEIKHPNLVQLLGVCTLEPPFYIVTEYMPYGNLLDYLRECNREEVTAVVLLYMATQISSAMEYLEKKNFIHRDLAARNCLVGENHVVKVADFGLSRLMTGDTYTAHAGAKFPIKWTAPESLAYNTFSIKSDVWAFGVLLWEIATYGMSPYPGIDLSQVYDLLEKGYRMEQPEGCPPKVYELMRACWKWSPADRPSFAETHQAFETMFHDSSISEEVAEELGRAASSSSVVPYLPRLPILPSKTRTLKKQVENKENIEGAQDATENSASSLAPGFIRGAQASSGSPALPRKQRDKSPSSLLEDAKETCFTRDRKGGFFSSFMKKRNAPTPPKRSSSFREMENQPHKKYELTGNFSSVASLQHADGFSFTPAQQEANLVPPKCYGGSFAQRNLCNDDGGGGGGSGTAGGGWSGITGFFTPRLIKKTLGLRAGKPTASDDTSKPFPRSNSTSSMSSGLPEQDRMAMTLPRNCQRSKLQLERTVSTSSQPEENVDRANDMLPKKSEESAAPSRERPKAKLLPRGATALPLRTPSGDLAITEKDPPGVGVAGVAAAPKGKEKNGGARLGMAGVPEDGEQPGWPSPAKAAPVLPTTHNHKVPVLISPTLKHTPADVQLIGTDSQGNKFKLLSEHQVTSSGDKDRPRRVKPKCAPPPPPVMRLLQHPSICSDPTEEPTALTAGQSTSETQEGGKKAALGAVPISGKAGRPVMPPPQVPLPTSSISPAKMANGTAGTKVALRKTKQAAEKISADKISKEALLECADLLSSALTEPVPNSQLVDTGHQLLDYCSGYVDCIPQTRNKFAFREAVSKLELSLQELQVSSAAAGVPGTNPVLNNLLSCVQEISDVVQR
readout kind: % activity (%)

* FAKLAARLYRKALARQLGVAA [MMI-0300] | 72
* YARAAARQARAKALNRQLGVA [MMI-0200] | 82
* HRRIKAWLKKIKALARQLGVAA [MMI-0500] | 22
* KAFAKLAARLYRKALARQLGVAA [MMI-0400] | 84

* * *

Here, each record is paired with measured % activity data.
Target: LKB1(h) (Homo sapiens, UniProt Q15831)
Sequence (Q15831 1-433): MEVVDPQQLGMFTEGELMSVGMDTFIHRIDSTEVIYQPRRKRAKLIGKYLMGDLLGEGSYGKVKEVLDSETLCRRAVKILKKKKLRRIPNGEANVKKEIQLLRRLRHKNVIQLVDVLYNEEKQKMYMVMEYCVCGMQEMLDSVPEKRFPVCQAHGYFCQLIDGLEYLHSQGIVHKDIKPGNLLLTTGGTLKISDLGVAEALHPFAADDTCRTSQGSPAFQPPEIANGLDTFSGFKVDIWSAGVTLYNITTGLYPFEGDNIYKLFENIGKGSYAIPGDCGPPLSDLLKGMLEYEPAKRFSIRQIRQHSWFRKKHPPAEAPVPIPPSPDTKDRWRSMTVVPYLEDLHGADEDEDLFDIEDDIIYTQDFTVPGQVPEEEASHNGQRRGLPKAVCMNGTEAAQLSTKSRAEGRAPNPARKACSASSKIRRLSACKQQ
Sequence (Q7RTN6 1-431 partner): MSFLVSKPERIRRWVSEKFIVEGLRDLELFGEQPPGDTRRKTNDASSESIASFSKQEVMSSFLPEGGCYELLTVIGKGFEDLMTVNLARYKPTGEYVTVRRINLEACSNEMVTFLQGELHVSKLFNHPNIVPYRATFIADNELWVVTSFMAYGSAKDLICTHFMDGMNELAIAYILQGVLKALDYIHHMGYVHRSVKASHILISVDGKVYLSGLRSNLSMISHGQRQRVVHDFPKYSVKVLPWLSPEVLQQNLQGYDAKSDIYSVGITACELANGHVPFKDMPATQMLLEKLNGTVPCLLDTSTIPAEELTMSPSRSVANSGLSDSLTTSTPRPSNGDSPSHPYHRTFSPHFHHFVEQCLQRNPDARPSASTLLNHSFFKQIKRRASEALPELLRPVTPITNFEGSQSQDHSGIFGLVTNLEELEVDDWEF
Sequence (Q9Y376 1-341 partner): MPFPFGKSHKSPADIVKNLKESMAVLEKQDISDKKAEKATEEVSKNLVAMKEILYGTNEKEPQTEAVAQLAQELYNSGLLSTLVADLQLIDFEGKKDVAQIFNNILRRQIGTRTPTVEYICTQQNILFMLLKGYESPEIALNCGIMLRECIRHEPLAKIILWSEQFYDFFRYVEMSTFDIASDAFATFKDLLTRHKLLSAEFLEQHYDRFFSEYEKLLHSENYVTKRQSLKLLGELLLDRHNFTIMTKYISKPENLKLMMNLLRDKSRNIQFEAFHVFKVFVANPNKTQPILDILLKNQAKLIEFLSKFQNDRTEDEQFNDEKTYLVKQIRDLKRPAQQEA
Assay: Kinase Profiling Assay
Type: biochemical
Settings: 100 μM
readout kind: % activity (%)

• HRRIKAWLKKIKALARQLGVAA [MMI-0500] = 51
• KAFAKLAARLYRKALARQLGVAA [MMI-0400] = 89
• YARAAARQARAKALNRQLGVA [MMI-0200] = 99
• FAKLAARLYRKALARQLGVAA [MMI-0300] = 101

* * *

sequences and their reported % activity
target: Lyn(h) (Homo sapiens, UniProt P07948); experiment: Kinase Profiling Assay; assay type: biochemical; conditions: 100 μM
Sequence (P07948 whole entry): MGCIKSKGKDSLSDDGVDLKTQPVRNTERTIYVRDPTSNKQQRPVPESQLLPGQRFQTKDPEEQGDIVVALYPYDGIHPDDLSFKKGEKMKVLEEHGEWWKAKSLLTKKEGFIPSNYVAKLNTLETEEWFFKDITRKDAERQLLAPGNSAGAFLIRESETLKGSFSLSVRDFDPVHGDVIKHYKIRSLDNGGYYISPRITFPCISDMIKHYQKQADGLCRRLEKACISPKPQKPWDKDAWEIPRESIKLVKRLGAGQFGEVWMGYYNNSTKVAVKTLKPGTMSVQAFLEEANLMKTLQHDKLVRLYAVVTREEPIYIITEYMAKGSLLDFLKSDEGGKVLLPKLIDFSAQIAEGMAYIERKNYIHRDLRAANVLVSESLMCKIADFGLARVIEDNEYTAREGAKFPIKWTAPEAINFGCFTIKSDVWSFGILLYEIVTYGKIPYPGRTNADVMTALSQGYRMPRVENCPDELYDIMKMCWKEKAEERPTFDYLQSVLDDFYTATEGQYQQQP
readout kind: % activity (%)

- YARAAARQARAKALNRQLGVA [MMI-0200]: 98
- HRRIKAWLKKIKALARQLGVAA [MMI-0500]: 31
- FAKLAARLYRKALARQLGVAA [MMI-0300]: 69
- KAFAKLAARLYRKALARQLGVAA [MMI-0400]: 3

* * *

molecular target: CHK2(I157T)(h) (Homo sapiens, UniProt O96017, I157T); experiment: Kinase Profiling Assay; format: biochemical; details: 100 μM
Sequence (O96017 whole entry I157T): as the sequence (O96017 whole entry R145W) above, with W145R, I157T counted along it
readout kind: % activity (%)

* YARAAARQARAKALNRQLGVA [MMI-0200] | 85
* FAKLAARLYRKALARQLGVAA [MMI-0300] | 43
* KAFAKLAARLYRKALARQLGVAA [MMI-0400] | 41
* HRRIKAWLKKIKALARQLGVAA [MMI-0500] | 3

* * *

biological target: Aurora-B(h) (Homo sapiens, UniProt Q96GD4); test: Kinase Profiling Assay; type: biochemical; details: 100 μM
Sequence (Q96GD4 whole entry): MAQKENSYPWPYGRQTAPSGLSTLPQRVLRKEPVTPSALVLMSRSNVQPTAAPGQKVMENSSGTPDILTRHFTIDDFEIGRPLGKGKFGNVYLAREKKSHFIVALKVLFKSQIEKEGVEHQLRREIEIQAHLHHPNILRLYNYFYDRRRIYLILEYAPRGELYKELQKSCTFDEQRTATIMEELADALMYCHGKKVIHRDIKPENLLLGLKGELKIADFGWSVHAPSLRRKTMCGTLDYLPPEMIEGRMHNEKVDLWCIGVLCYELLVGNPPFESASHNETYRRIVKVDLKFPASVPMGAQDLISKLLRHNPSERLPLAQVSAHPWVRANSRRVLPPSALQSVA
readout kind: % activity (%)

- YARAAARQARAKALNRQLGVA [MMI-0200]: 166
- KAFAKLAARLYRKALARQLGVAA [MMI-0400]: 150
- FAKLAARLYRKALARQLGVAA [MMI-0300]: 128
- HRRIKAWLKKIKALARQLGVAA [MMI-0500]: 5

* * *

Reported % activity by item:
target: Lck(h) activated (Homo sapiens); assay: Kinase Profiling Assay; type: biochemical; settings: 100 μM
Sequence (P06239 whole entry): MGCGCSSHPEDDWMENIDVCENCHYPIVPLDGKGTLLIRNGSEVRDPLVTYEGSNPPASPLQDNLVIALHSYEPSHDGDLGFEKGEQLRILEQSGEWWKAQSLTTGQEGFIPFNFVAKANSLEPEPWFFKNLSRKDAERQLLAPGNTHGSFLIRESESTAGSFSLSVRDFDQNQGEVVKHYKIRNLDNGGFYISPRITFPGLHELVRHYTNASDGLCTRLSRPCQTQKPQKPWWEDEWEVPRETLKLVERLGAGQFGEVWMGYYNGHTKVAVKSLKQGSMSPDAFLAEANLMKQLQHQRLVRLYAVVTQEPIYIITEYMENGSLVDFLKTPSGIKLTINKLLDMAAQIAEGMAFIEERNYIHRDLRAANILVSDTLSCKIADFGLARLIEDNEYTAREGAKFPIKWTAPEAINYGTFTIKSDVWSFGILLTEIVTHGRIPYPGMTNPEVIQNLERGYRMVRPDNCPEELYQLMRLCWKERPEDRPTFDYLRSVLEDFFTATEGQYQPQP
readout kind: % activity (%)

• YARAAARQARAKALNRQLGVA [MMI-0200] = 90
• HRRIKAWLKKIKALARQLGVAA [MMI-0500] = 76
• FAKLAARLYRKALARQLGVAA [MMI-0300] = 243
• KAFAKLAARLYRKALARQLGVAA [MMI-0400] = 216

* * *

target: PKBβ(h) (Homo sapiens); assay: Kinase Profiling Assay; format: biochemical; details: 100 μM
Sequence (P31751 whole entry): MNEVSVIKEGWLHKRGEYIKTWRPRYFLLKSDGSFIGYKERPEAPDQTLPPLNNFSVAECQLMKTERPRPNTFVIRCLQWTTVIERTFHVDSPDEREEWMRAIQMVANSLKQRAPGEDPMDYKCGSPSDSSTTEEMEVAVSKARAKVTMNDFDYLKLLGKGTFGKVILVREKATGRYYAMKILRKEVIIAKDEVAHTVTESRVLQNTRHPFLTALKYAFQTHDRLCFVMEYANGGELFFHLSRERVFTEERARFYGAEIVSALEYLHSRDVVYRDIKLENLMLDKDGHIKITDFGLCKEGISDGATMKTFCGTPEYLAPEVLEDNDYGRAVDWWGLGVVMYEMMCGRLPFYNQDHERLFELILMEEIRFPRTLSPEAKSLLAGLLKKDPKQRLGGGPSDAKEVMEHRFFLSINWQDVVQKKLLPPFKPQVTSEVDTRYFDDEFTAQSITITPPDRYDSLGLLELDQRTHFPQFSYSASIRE
In this section we review reported % activity values for a set of sequences.
readout kind: % activity

• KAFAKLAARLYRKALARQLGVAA [MMI-0400] = 98%
• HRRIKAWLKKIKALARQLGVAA [MMI-0500] = 21%
• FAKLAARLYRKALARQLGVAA [MMI-0300] = 84%
• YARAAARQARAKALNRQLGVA [MMI-0200] = 250%

* * *

biological target: FGFR4(h) (Homo sapiens); experiment: Kinase Profiling Assay; type: biochemical; conditions: 100 μM
Measured % activity, listed per entry.
readout kind: % activity (%)

• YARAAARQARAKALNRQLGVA [MMI-0200] = 75
• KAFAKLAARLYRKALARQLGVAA [MMI-0400] = 19
• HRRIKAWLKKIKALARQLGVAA [MMI-0500] = 3
• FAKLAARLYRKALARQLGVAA [MMI-0300] = 28

* * *

Parameter % activity: see the listing below.
target: FGFR1(h) (Homo sapiens, UniProt P11362); assay: Kinase Profiling Assay; type: biochemical; conditions: 100 μM
Sequence (P11362 22-822): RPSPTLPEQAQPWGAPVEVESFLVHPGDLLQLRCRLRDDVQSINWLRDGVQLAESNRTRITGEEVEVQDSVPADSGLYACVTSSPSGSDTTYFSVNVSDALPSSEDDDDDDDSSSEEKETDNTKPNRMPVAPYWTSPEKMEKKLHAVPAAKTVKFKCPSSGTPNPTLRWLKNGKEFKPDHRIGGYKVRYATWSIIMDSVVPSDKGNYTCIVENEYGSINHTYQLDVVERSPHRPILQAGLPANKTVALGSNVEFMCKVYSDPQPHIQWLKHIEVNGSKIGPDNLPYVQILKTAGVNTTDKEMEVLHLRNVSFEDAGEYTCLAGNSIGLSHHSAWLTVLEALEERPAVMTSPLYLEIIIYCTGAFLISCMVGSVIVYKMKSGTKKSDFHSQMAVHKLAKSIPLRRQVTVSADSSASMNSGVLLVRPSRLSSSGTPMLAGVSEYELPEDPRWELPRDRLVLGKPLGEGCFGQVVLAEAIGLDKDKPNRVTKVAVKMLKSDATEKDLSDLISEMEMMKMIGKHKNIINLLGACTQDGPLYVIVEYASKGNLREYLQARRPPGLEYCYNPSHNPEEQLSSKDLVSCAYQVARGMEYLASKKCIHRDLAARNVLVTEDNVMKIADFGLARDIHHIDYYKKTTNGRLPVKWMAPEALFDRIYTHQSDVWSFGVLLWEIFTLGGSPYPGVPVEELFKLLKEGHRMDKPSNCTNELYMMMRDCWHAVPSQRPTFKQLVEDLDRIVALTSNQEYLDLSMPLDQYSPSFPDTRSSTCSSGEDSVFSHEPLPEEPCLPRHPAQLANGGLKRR
readout kind: % activity (%)

* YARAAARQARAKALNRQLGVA [MMI-0200] | 97
* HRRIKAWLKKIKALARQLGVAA [MMI-0500] | 18
* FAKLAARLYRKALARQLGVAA [MMI-0300] | 55
* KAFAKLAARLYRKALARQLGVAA [MMI-0400] | 59
